All figures here come from ChEMBL document CHEMBL3272350.

- System: Mus musculus
- assay.protocol: Antianxiety activity in albino BALB/cJ mouse assessed as reduction of footshock-induced fighting behavior at 10 mg/kg, po after 90 mins relative to control
- Format: functional
- Parameters: scale not given: the % may be the effect or the level left
Provide the recorded Activity for the entries that follow.
Give the quantity in %, number only.

Task: Find the recorded Activity belonging to CCCCCC(C)C(C)c1cc(O)c2c(c1)OC(C)(C)C1=C2C(C)CS1 (stereo not given) and report it.
Output: 33

Task: Look up Activity: CCCCCC(C)C(C)c1cc(O)c2c(c1)OC(C)(C)C1=C2CC(C)S1 (stereo not given)
Output: 33

Task: So what's the measured Activity for this one? CCCCCC(C)C(C)c1cc(O)c2c(c1)OC(C)(C)C1=C2CCC1 (stereo not given)
Output: 33

Task: Entry under review: CCCCCC(C)C(C)c1cc(O)c2c(c1)OC(C)(C)C1=C2CC(C)(C)S1 (stereo not given) . Reported Activity?
Output: 1

Task: Recorded Activity for CCCCCC(C)C(C)c1cc(O)c2c(c1)OC(C)(C)C1=C2CC(C)(C)C1 (stereo not given) , please?
Output: 33

Task: Which measured Activity value corresponds to CCCCCC(C)C(C)c1cc(O)c2c(c1)OC(C)(C)C1=C2C(C)CCC1 (stereo not given) ?
Output: 33

Task: Sample CCCCCC(C)C(C)c1cc(O)c2c(c1)OC(C)(C)C1=C2CCS1 (stereo not given) — what was its Activity?
Output: 33

Task: Any idea what its Activity is? The compound is CCCCCC(C)C(C)c1cc(O)c2c(c1)OC(C)(C)C1=C2C(C)CC1 (stereo not given)
Output: 66

Task: Consider the compound shown here: CCCCCC(C)C(C)c1cc(O)c2c(c1)OC(C)(C)C1=C2CC(C)C1 (stereo not given) What is its recorded Activity?
Output: 1

Task: # lookup: Activity of CCCCCC(C)C(C)c1cc(O)c2c(c1)OC(C)(C)C1=C2CC(C)CC1 (stereo not given)
Output: 66
